Target: ATP-dependent 6-phosphofructokinase (Trypanosoma brucei brucei) (UniProt O15648)
Sequence (O15648 whole entry, looked up): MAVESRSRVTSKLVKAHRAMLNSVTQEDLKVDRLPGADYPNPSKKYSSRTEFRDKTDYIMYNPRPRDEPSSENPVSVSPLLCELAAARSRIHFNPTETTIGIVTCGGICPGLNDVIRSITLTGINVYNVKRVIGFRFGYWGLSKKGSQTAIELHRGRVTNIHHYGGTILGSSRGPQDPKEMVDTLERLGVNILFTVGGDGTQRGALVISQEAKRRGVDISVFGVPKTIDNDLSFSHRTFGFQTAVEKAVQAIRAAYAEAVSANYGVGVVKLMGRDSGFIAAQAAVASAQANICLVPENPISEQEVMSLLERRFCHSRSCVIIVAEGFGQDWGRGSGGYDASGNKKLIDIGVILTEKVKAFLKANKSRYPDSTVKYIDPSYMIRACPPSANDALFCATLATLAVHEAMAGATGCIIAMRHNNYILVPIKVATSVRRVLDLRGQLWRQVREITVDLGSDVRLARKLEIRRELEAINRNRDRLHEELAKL
Assay: qHTS Assay to Find Inhibitors of T. brucei phosphofructokinase: hit validation (AID 492961)
Conditions: T. brucei PFK, ADP-Glo luminescence; series mostly up to 51.4 µM
Inconclusive results are not listed. The source made the active and inactive calls. The call rests on the fitted dose curve; in most records, active means well fitted inhibition curve with a large enough effect; inconclusive means small, poorly fitted or top-dose-only effect, or effect the other way; inactive means flat fitted curve, though single readings scatter.
Response enum: label 1 for active, label 0 for inactive

Give the logged outcome of this assay for the following compound: CCCCC(CC)COS(=O)(=O)O (stereo not drawn) label 0

Give the logged outcome of this assay for the following compound: "Nc1ncnc2c1ncn2[C@H]1CC[C@@H](CO)O1" label 0

Give the logged outcome of this assay for the following compound: "CCN(CC)CCOc1ccc2nc(N(C)C)sc2c1" label 0

Give the logged outcome of this assay for the following compound: "CCN(CC)C(=O)c1cccnc1" label 0

Give the logged outcome of this assay for the following compound: "CCCCC" label 0

Give the logged outcome of this assay for the following compound: "Cn1c(=O)c2c(ncn2CCOC(=O)C(C)(C)Oc2ccc(Cl)cc2)n(C)c1=O" label 0

Give the logged outcome of this assay for the following compound: "C[Se]CC[C@H](N)C(=O)O" label 0

Give the logged outcome of this assay for the following compound: CCCCCCCCCCCCCC(=O)OCC(COP(=O)([O-])OCC[N+](C)(C)C)OC(=O)CCCCCCCCCCCCC (stereo not drawn) label 0

Give the logged outcome of this assay for the following compound: "OC/C=C/c1ccccc1" label 0

Give the logged outcome of this assay for the following compound: "CCSc1ccc2c(c1)N(CCCN1CCN(C)CC1)c1ccccc1S2" label 0

Give the logged outcome of this assay for the following compound: "CC(C)c1ncc([N+](=O)[O-])n1C" label 0

Give the logged outcome of this assay for the following compound: "CCCCCCCCCCCCCCCCCC[N+](C)(C)CCC[Si](OC)(OC)OC" label 0

Give the logged outcome of this assay for the following compound: "Cc1cc(-c2ccc(N=Nc3c(S(=O)(=O)O)cc4cc(S(=O)(=O)O)cc(N)c4c3O)c(C)c2)ccc1N=Nc1c(S(=O)(=O)O)cc2cc(S(=O)(=O)O)cc(N)c2c1O" label 1

Give the logged outcome of this assay for the following compound: "Cc1ccc(C(C)(C)c2ccc(C)cc2)cc1" label 0

Give the logged outcome of this assay for the following compound: "CC(=O)[C@H]1CC[C@H]2[C@@H]3C=CC4=CC(=O)CC[C@@]4(C)[C@H]3CC[C@]12C" label 0

Give the logged outcome of this assay for the following compound: "c1ccc2ccccc2c1" label 0

Give the logged outcome of this assay for the following compound: "CCCc1ccc(C(=O)O)cc1" label 0

Give the logged outcome of this assay for the following compound: "CC(C)CCCCCCc1ccc(O)cc1" label 0

Give the logged outcome of this assay for the following compound: "C(=C\c1ccncc1)/c1ccccc1" label 0

Give the logged outcome of this assay for the following compound: "OCl" label 0

Give the logged outcome of this assay for the following compound: "[O]=[Bi][O]C(=O)[O][Bi]=[O]" label 0

Give the logged outcome of this assay for the following compound: "c1ccc2c(c1)Sc1ccccc1N2CCN1CCCC1" label 0

Give the logged outcome of this assay for the following compound: "CC(=O)Oc1cc(C(F)(F)F)ccc1C(=O)O" label 0

Give the logged outcome of this assay for the following compound: "CCc1ccc(S(=O)(=O)O)cc1" label 0

Give the logged outcome of this assay for the following compound: "CN(Cc1ccccc1)Cc1ccccc1" label 0

Give the logged outcome of this assay for the following compound: "CNC(=O)[C@H](Cc1c[nH]c2ccccc12)NC(=O)[C@@H](CC(=O)NO)CC(C)C" label 0

Give the logged outcome of this assay for the following compound: "O=C1c2ccccc2C(=O)c2c1ccc(O)c2O" label 0

Give the logged outcome of this assay for the following compound: CS(=O)(=O)OCC(O)C(O)COS(C)(=O)=O (stereo not drawn) label 0

Give the logged outcome of this assay for the following compound: "O=C(O)[C@H]1CN(C/C=C/P(=O)(O)O)CCN1" label 0

Give the logged outcome of this assay for the following compound: "[O]=[Bi][O][Bi]=[O]" label 0

Give the logged outcome of this assay for the following compound: "CN(C)CCC=C1c2ccccc2C(C)(C)c2ccccc21" label 0

Give the logged outcome of this assay for the following compound: "CCOC(=O)[C@@H](N)CS" label 0

Give the logged outcome of this assay for the following compound: "NC(=O)[C@H]1O[C@@H](O)[C@H](O)[C@@H](O)[C@@H]1O" label 0

Give the logged outcome of this assay for the following compound: "C#C[C@]1(O)CC[C@@H]2[C@H]3CCC4=CC(=O)CC[C@H]4[C@H]3C(=C)C[C@@]21CC" label 0

Give the logged outcome of this assay for the following compound: "CN1C(=O)OC(C)(C)C1=O" label 0

Give the logged outcome of this assay for the following compound: "CCCCC/C=C\C/C=C\C/C=C\CCCCC(=O)O" label 0

Give the logged outcome of this assay for the following compound: CC1CC(OC(=O)C(O)c2ccccc2)CC(C)(C)C1 (stereo not drawn) label 0

Give the logged outcome of this assay for the following compound: CN(C)C(=O)CCSC(SCCC(=O)O)c1cccc(/C=C/c2ccc3ccc(Cl)cc3n2)c1 (stereo not drawn) label 0

Give the logged outcome of this assay for the following compound: "CC(C)CCC[C@@H](C)[C@H]1CC[C@H]2[C@@H]3CC[C@@H]4C[C@H](O)CC[C@]4(C)[C@H]3CC[C@]12C" label 0

Give the logged outcome of this assay for the following compound: "CC(=O)Nc1ccc(OC(C)=O)cc1" label 0

Give the logged outcome of this assay for the following compound: "C[C@H](N)C(=O)N[C@@H](C)P(=O)(O)O" label 0

Give the logged outcome of this assay for the following compound: CC(C)(COP(=O)(O)OP(=O)(O)OC[C@H]1O[C@@H](n2cnc3c(N)ncnc32)[C@H](O)[C@@H]1OP(=O)(O)O)C(O)C(=O)NCCC(=O)NCCS (stereo partly drawn) label 0

Give the logged outcome of this assay for the following compound: "O=[N+]([O-])c1c(Cl)cccc1-c1c[nH]cc1Cl" label 0

Give the logged outcome of this assay for the following compound: "Cn1c(O)c(N=NC(N)=S)c2ccccc21" label 0

Give the logged outcome of this assay for the following compound: "N[C@@H](Cc1cc(I)c(Oc2ccc(O)c(I)c2)c(I)c1)C(=O)O" label 0

Give the logged outcome of this assay for the following compound: C=C1C(CCl)(CCl)C2(Cl)C(Cl)C(Cl)C1(Cl)C2(Cl)Cl (stereo not drawn) label 0

Give the logged outcome of this assay for the following compound: "CNC(=O)c1c(I)c(C(=O)NCC(=O)Nc2c(I)c(C(=O)O)c(I)c(C(=O)NCCO)c2I)c(I)c(N(C)C(C)=O)c1I" label 0

Give the logged outcome of this assay for the following compound: CC(CCc1ccc(O)cc1)NCC(O)c1ccc(O)cc1 (stereo not drawn) label 0

All figures here come from PubChem BioAssay (NCATS).
